This section presents molecules with their documented inhibition values.
Experiment: inhibitors of PAF-induced NFkB signaling in CF airway cells, dose response, cell-based, uHTS hits, panel, cytotoxicity readout (AID 624344)
Conditions: CF bronchial epithelial cells, PAF-induced NFkB reporter inhibition, with PAF, run 1; at 79 µM (top of the series) unless noted
Enter your answer as a number in %; do not include the unit.

Completed entries (count: 5):
>>> number("CC(=O)OC1CCC2(C)C(CCC3C4CC=C(C(C)=O)C4(C)OC(=O)CC32)C1 (stereo not given)")
99.2
>>> number("CCOC(=O)c1c(-c2ccccc2)oc2cc(Br)c(O)c(C=O)c12")
90.8
>>> number("COc1ccccc1NC(=O)c1cc2c(CO)cnc(C)c2oc1=Nc1ccc(OC)c(OC)c1")
73.4
>>> number("CCC1(O)CC2CN(CCc3c([nH]c4ccccc34)C(C(=O)OC)(c3cc4c(cc3OC)N(C=O)C3C(O)(C(=O)OC)C(OC(C)=O)C5(CC)C=CCN6CCC43C65)C2)C1 (stereo not given)")
107
>>> number("COc1cccc(NC(=O)Nc2nnc(CC(=O)Nc3ccccc3)s2)c1")
90.4

The measured inhibition associated with Cc1ccc(NC(=O)c2cc(C(=O)c3cc(Cl)ccc3O)cn(-c3ccc(C)cc3)c2=O)cc1 reads 65.5

The recorded inhibition for CC1CCc2sc3ncnc(N4CCOCC4)c3c2C1 (stereo not given) is 112

inhibition recorded for this molecule, CCOc1ccc(-n2c(C)c(C(C)=O)c3cc(O)ccc32)cc1 , is 90

// recorded inhibition for CC(=O)Oc1ccc(N(C(C)=O)S(=O)(=O)c2ccc(Cl)cc2)c2ccccc12 : 99.9

// Cc1ccc(CNc2ncnc3ccc(-c4ccoc4C)cc23)o1 : inhibition value = 103

Quick note, inhibition for O=C(c1ccc(O)c(Br)c1)c1cc(Br)ccc1O landed at 105

The molecule O=c1c(-c2c(O)cc(O)c3c2O[C@H](c2ccc(O)cc2)CC3)c(-c2ccc(O)cc2)oc2cc(O)cc(O)c12 showed inhibition equal to 105

Field inhibition (entry CCc1nccn1C(=O)c1cnn2c(C(F)F)cc(-c3ccc(C)cc3)nc12 ) reads 102

Sure, the documented inhibition for Cc1c(O)ccc2c(-c3ccccc3)cc(=O)oc12 is 105

The reported value for O=C(NNc1ccccc1Cl)C(O)(c1cccc(C(F)(F)F)c1)c1cccc(C(F)(F)F)c1 in terms of inhibition is 115

Record CC1CCc2c(sc3ncnc(N4CCOCC4)c23)C1 (stereo not given) , field inhibition: 114

Field inhibition (entry O=C1Cc2c([nH]c3ccc(Br)cc23)-c2ccccc2N1 ) reads 94.6

Data point: O=C(c1cncc(Br)c1)N1CCc2ccccc2C1 ; inhibition = 92.5

Data point: c1cc2[nH]snc2c2nc(C3CC3)nc12 ; inhibition = 101
